biological target: mouse P23H-opsin mutant (Mus musculus, UniProt P15409, P23H); assay: β-Gal fragment complementation assay: rescue of P23H opsin transport from ER to plasma membrane, U2OS(PLC-EA/P23H-PK) cells; assay type: cell-based; settings: 24 h; 5 µM 9-cis-retinal = 100%; from curve fitting
Sequence (P15409 whole entry P23H, the tested form may be a part): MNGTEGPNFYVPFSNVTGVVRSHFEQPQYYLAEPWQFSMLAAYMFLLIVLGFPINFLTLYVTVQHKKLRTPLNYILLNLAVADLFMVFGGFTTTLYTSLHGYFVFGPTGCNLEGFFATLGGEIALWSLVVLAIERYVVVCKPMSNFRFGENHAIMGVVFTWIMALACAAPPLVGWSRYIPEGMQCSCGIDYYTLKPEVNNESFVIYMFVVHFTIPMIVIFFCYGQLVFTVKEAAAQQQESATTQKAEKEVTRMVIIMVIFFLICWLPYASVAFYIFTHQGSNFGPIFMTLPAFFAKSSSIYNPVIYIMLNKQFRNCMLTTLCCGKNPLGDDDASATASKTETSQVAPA
measured_metric: β-Gal fragment complementation assay Activity score (%) Max (fit) / Efficacy

# β-Gal fragment complementation assay Activity score (%) Max (fit) / Efficacy of O=C(NCCCn1cccc1)c1cc(-c2ccccc2)on1 = 37.3

Query O=C(NCC#CCN1CCCC1)c1cc(-c2ccccc2)on1 yields β-Gal fragment complementation assay Activity score (%) Max (fit) / Efficacy of 25.2

For this molecule ( O=C(Cn1c2c(c(=O)n(C3CCCCC3)c1=O)CCC2)Nc1cccc(F)c1 ), measured β-Gal fragment complementation assay Activity score (%) Max (fit) / Efficacy is 165

The recorded β-Gal fragment complementation assay Activity score (%) Max (fit) / Efficacy for COCCNC(=O)c1sc2c(cnc3ccc(OC)cc32)c1-c1ccccc1 is 155

The molecule listed as Cc1cc(OCC(=O)Nc2cc(N3CCOCC3)ncn2)cc(C)c1Cl has a reported β-Gal fragment complementation assay Activity score (%) Max (fit) / Efficacy of 234

The reported β-Gal fragment complementation assay Activity score (%) Max (fit) / Efficacy of the molecule O=C(CCCCCN1C(=O)c2cccc3cccc(c23)C1=O)NO [Scriptaid, reference compound] was 98.2

Lookup result for CC1=C(/C=C/C(C)=C\C=C\C(C)=C\C=O)C(C)(C)CCC1 [9-cis-retinal, reference compound] ; measured β-Gal fragment complementation assay Activity score (%) Max (fit) / Efficacy: 159

# β-Gal fragment complementation assay Activity score (%) Max (fit) / Efficacy of O=C(C1CC1)N(CCn1cccn1)c1nc2c(Cl)cccc2s1 = 230

Documented β-Gal fragment complementation assay Activity score (%) Max (fit) / Efficacy of O=C1OCC(c2ccc(Cl)s2)=C1c1cccs1 : 310

A = O=C(NCCn1ncc2c(NCc3ccco3)ncnc21)c1cc(-c2ccccc2)on1
B = O=C(NCCCOc1cccc2cccnc12)c1cc(-c2ccccc2)on1
Quick check, higher β-Gal fragment complementation assay Activity score (%) Max (fit) / Efficacy between A and B ? # answer = label of selected item
B
(B: 51.6%, A: 31.5%)
